assay: Cell viability (MTT assay) in LPS-treated RAW 264.7 macrophages; type: cell-based; conditions: mouse, RAW 264.7 macrophages treated with LPS, compound 100 μM and LPS 1 μg/mL, pretreated 1 h, incubated 24 h, read-out: Cell Viabilities (%)
propertyName: viability at 24 h, 100 μM
The reply must contain the numeric value and, after it, the unit.

Record COc1cc(/C=C/C(=O)O[C@H]2C[C@@H](C(C)C)[C@@H](O[C@@H]3O[C@H](CO)[C@@H](O)[C@H](O)[C@H]3O)[C@H]3C(C)=CC[C@@H](O)[C@]23C)ccc1O . Reported viability at 24 h, 100 μM: 89.3%

Record CC1=CC[C@@H](O)[C@]2(C)[C@@H](OC(=O)/C=C\c3ccc(O)cc3)C[C@@H](C(C)C)[C@@H](O[C@@H]3O[C@H](CO)[C@@H](O)[C@H](O)[C@H]3O)[C@@H]12 . Reported viability at 24 h, 100 μM: 108%

Record CC1=CCC(OC2OC(CO)C(O)C(O)C2O)C2(C)C(O)CC(C(C)C)C(OC3OC(CO)C(O)C(O)C3O)C12 (stereo not drawn) . Reported viability at 24 h, 100 μM: 102%

###

system: LPS-stimulated NO production in RAW 264.7 macrophages; experiment: LPS-induced NO production in RAW 264.7 macrophages (Griess reaction); assay type: cell-based; details: Mus musculus, RAW264.7; RAW 264.7; compound 100 μM and LPS 1 μg/mL, pretreated 1 h, incubated 24 h; read-out: Inhibition Rate (%) NO
propertyName: inhibition at 100 µM (%)
Kindly answer with a numeric value in %, unit omitted.

Known inhibition at 100 µM results, listed for orientation:
[
  {
    "structureSmilesString": "CC1=CC[C@@H](O)[C@]2(C)[C@@H](OC(=O)/C=C\\c3ccc(O)cc3)C[C@@H](C(C)C)[C@@H](O[C@@H]3O[C@H](CO)[C@@H](O)[C@H](O)[C@H]3O)[C@@H]12",
    "testSystem": "LPS-stimulated NO production in RAW 264.7 macrophages",
    "units": "%",
    "inhibition at 100 µM": 7.01
  },
  {
    "structureSmilesString": "O=C(/C=C/c1ccc(O)c(O)c1)O[C@@H]1[C@H](O)C[C@@](O)(C(=O)O)C[C@H]1OC(=O)/C=C/c1ccc(O)c(O)c1",
    "testSystem": "LPS-stimulated NO production in RAW 264.7 macrophages",
    "units": "%",
    "inhibition at 100 µM": 4.64
  }
]

Record CC1=CC[C@@H](O)[C@@]2(C)[C@H]1[C@H](O[C@@H]1O[C@H](CO)[C@@H](O)[C@H](O)[C@H]1O)[C@H](C(C)(C)O)C[C@@H]2O . Reported inhibition at 100 µM: 1.31

###

tested on: LPS-stimulated NO production in RAW 264.7 macrophages; test: LPS-induced NO production in RAW 264.7 macrophages (Griess reaction); assay type: cell-based; conditions: Mus musculus, RAW264.7; RAW 264.7; compound 100 μM and LPS 1 μg/mL, pretreated 1 h, incubated 24 h; read-out: Inhibition Rate (%) NO
propertyName: inhibition at 100 µM

Known inhibition at 100 µM results, listed for orientation:
[
  {
    "molecule": "CC1=CC[C@@H](O)[C@]2(C)[C@@H](OC(=O)/C=C/c3ccc(O)cc3)C[C@@H](C(C)C)[C@@H](O[C@@H]3O[C@H](CO)[C@@H](O)[C@H](O)[C@H]3O)[C@@H]12",
    "inhibition at 100 µM": "8.39%"
  },
  {
    "molecule": "COc1cc(/C=C/C(=O)O[C@H]2C[C@@H](C(C)C)[C@@H](O[C@@H]3O[C@H](CO)[C@@H](O)[C@H](O)[C@H]3O)[C@H]3C(C)=CC[C@@H](O)[C@]23C)ccc1O",
    "inhibition at 100 µM": "53.1%"
  },
  {
    "molecule": "CC1=CC[C@@H](O)[C@@]2(C)[C@H]1[C@H](O[C@@H]1O[C@H](CO)[C@@H](O)[C@H](O)[C@H]1O)[C@H](C(C)C)C[C@@H]2O",
    "inhibition at 100 µM": "3.2%"
  },
  {
    "molecule": "CC1=CCC(OC2OC(CO)C(O)C(O)C2O)C2(C)C(O)CC(C(C)C)C(OC3OC(CO)C(O)C(O)C3O)C12 (stereo not drawn)",
    "inhibition at 100 µM": "1.79%"
  }
]

Record CC1=CCC(OC2OC(CO)C(O)C(O)C2O)C2(C)C(O)CC(C(C)(C)O)C(OC3OC(CO)C(O)C(O)C3O)C12 (stereo not drawn) . Reported inhibition at 100 µM: 4.66%

Record O=C(/C=C/c1ccc(O)c(O)c1)O[C@@H]1C[C@](O)(C(=O)O)C[C@@H](OC(=O)/C=C/c2ccc(O)c(O)c2)[C@H]1O . Reported inhibition at 100 µM: 6.25%

###

experiment: Cell viability (MTT assay) in LPS-treated RAW 264.7 macrophages; assay type: cell-based; conditions: mouse, RAW 264.7 macrophages treated with LPS, compound 100 μM and LPS 1 μg/mL, pretreated 1 h, incubated 24 h, read-out: Cell Viabilities (%)
propertyName: viability at 24 h, 100 μM (%)
Kindly answer with a numeric value in %, unit omitted.

Known viability at 24 h, 100 μM results, listed for orientation:
[
  {
    "molecule": "CC1=CCC(OC2OC(CO)C(O)C(O)C2O)C2(C)C(O)CC(C(C)(C)O)C(OC3OC(CO)C(O)C(O)C3O)C12 (stereo not drawn)",
    "viability at 24 h, 100 μM / %": 94
  },
  {
    "molecule": "O=C(/C=C/c1ccc(O)c(O)c1)O[C@@H]1[C@H](O)C[C@@](O)(C(=O)O)C[C@H]1OC(=O)/C=C/c1ccc(O)c(O)c1",
    "viability at 24 h, 100 μM / %": 100
  },
  {
    "molecule": "CC1=CC[C@@H](O)[C@]2(C)[C@@H](OC(=O)/C=C/c3ccc(O)cc3)C[C@@H](C(C)C)[C@@H](O[C@@H]3O[C@H](CO)[C@@H](O)[C@H](O)[C@H]3O)[C@@H]12",
    "viability at 24 h, 100 μM / %": 104
  },
  {
    "molecule": "CC1=CC[C@@H](O)[C@@]2(C)[C@H]1[C@H](O[C@@H]1O[C@H](CO)[C@@H](O)[C@H](O)[C@H]1O)[C@H](C(C)(C)O)C[C@@H]2O",
    "viability at 24 h, 100 μM / %": 102
  },
  {
    "molecule": "CC1=CC[C@@H](O)[C@@]2(C)[C@H]1[C@H](O[C@@H]1O[C@H](CO)[C@@H](O)[C@H](O)[C@H]1O)[C@H](C(C)C)C[C@@H]2O",
    "viability at 24 h, 100 μM / %": 105
  }
]

Below: the item to evaluate.
Record O=C(/C=C/c1ccc(O)c(O)c1)O[C@@H]1C[C@](O)(C(=O)O)C[C@@H](OC(=O)/C=C/c2ccc(O)c(O)c2)[C@H]1O . Reported viability at 24 h, 100 μM: 93.4

Origin of measurements: paper PMC7766762
